- System: rMTC 6-23 cells
- EXPERIMENT: Measurement of cytosolic Ca2+ in C-cells (fura-2)
- Format: cell-based, rat
- REPORTED_CONDITIONS: read-out: IC50 for block of extracellular Ca^2+-induced increases in [Ca^2+]i; rMTC cells; block of the L-type voltage-sensitive Ca2+ channel
MEASURED_ENDPOINT: IC50

• NCCCNCCCCNCCCNCCCN(O)CCCNC(=O)Cc1c[nH]c2cccc(O)c12 = 3000 nM

* * *

- EXPERIMENT: Net positive charge of the molecule
- Type: physicochemical
- REPORTED_CONDITIONS: at physiological pH (pH 7.3)
Listing: Net (+) Charge of selected compounds
MEASURED_ENDPOINT: Net (+) Charge

* [H]/N=C(/N)N[C@H]1[C@H](O)[C@@H](O)[C@H](O[C@@H]2O[C@@H](C)[C@](O)(C=O)[C@H]2O[C@@H]2O[C@@H](CO)[C@H](O)[C@@H](O)[C@@H]2NC)[C@@H](N/C(N)=N\[H])[C@@H]1O | +3
* NCCCCCCCCCCCCN | +2
* NCCCN1CCCN(CCCN)CCN(CCCN)CCCN(CCCN)CC1 | +8
* C1CNCCNCCNCCNCCNCCN1 | +6
* NC[C@@H]1O[C@H](O[C@H]2[C@@H](O)[C@H](O[C@@H]3[C@@H](O)[C@H](N)C[C@H](N)[C@H]3O[C@H]3O[C@H](CN)[C@@H](O)[C@H](O)[C@H]3N)O[C@@H]2CO)[C@H](N)[C@@H](O)[C@@H]1O | +6
* NC(=O)C[C@H](NC(=O)Cc1c[nH]c2cccc(O)c12)C(=O)NCCCCCNCCCNCCCNC(=O)[C@@H](N)CCCN=C(N)N | +4
